details: pH 2.3
Marks after values point to notes of the source that are not given here.
Readout kind: log p

[[record]]
compound = "C#CCNc1cc(-c2cnn(CC(C)C)c2-c2ccc(Cl)s2)cc[n+]1[O-] [Example 83]"
readout_kind = "log p"
test_value = "2.7^[a]"

[[record]]
compound = "CC(C)Cn1ncc(-c2cc[n+]([O-])c(NCc3ccccc3)c2)c1-c1ccc(Cl)s1 [Example 75]"
readout_kind = "log p"
test_value = "3.48^[a]"

[[record]]
compound = "CCC(=O)Nc1nccc(-c2cn(C(C)CC)nc2-c2ccc(Cl)s2)n1 (stereo not shown) [Example 190]"
readout_kind = "log p"
test_value = "3.37^[a]"


Please go through the list and note log p for each compound.
1. CCC(C)n1cc(-c2ccnc(S(C)(=O)=O)n2)c(-c2ccc(Cl)s2)n1 (stereo not shown) [Example 202]
2. COc1nccc(-c2c[nH]nc2-c2ccc(Cl)s2)n1 [Example 69]
3. C#CCNc1cc(-c2cn(CC(C)C)nc2-c2ccc(Cl)s2)cc[n+]1[O-] [Example 84]
4. CCC(C)n1cc(-c2ccnc(NCc3ccccc3)n2)c(-c2ccc(Cl)s2)n1 (stereo not shown) [Example 200]
5. Clc1ccc(-c2n[nH]cc2-c2ccnc(NCc3ccccc3)n2)s1 [Example 90]
6. CC(C)Cn1cc(-c2ccnc(N)c2)c(-c2ccc(Cl)s2)n1 [Example 76]
7. CCC(CC)n1ncc(-c2ccncc2)c1-c1ccc(Cl)s1 [Example 41]

1: 3.52^[a]; 2: 2.23^[a]; 3: 2.92^[a]; 4: 4.27^[a]; 5: 2.37^[a]; 6: 2.04^[a]; 7: 2.08^[a]

I'm hoping you can list log p for every compound here, please.
1. COCC(C)Nc1nccc(-c2cn(C(C)C)nc2-c2ccc(Cl)s2)n1 (stereo not shown) [Example 178]
2. CC(C)n1ncc(-c2ccncc2)c1-c1ccc(Cl)s1 [Example 39]
3. CCC(C)n1cc(-c2ccnc(SC)n2)c(-c2ccc(Cl)s2)n1 (stereo not shown) [Example 221]
4. CC(C)n1cc(-c2ccnc(NC=O)n2)c(-c2ccc(Cl)s2)n1 [Example 144]
5. CCC(C)Nc1nccc(-c2cn(C(C)CC)nc2-c2ccc(Cl)s2)n1 (stereo not shown) [Example 197]
6. CC(C)n1cc(-c2ccncc2)c(-c2ccc(Cl)s2)n1 [Example 38]
7. C=CCNc1nccc(-c2cn(C(C)CC)nc2-c2ccc(Cl)s2)n1 (stereo not shown) [Example 196]

1. 2.82^[a]
2. 1.63^[a];
3. 4.88^[a]
4. 3.81^[a]
5. 3.48^[a]
6. 1.63^[a];
7. 3.39^[a]

// input: 2 compounds below; output: log p for each
1. Clc1ccc(-c2c(-c3ccncc3)cnn2Cc2ccccc2)s1 [Example 42]
2. CCC(C)n1cc(-c2ccnc(NC3CC3)n2)c(-c2ccc(Cl)s2)n1 (stereo not shown) [Example 195]

["1.94^[a]", "2.9^[a]"]
